Listed molecules paired with reported AC50
Test system: Clone20 osteoblast Shn3 3'UTR firefly luciferase, 24 h
Method Description: Shn3 3'UTR reporter inhibitors, dose response, cell-based, Clone20 osteoblasts, luminescence, dry powder, set 2 (AID 743417)
Results filed as inconclusive are left out.
Recorded Metric: AC50

Molecule	Experimental Target	Recorded Metric	Recorded Result
CN(CCO)c1cc(Sc2nc3ccccc3s2)c2nonc2c1[N+](=O)[O-]	Clone20 osteoblast Shn3 3'UTR firefly luciferase, 24 h	AC50	1.55 µM
Cn1c(/C=C/c2ccc(Cl)cc2Cl)c([N+](=O)[O-])c(=O)n(C)c1=O	Clone20 osteoblast Shn3 3'UTR firefly luciferase, 24 h	AC50	6.87 µM
O=C(Nc1nc(-c2ccccn2)cs1)c1cccc(S(=O)(=O)N2CCOCC2)c1	Clone20 osteoblast Shn3 3'UTR firefly luciferase, 24 h	AC50	1.52 µM
Cc1cc(C)c2nc(NNC(=O)c3ccc(S(=O)(=O)N4CCc5ccccc5C4)cc3)sc2c1	Clone20 osteoblast Shn3 3'UTR firefly luciferase, 24 h	AC50	1.98 µM
COc1ccc(-n2c(C)cc(C(=O)CSc3nnc(-c4cccs4)o3)c2C)cc1	Clone20 osteoblast Shn3 3'UTR firefly luciferase, 24 h	AC50	5.03 µM
S=C(NCc1ccc(Cl)cc1)Nc1ccncc1	Clone20 osteoblast Shn3 3'UTR firefly luciferase, 24 h	AC50	1.5 µM
CCCCN(C(C)=O)c1ccc2c(c1)C1CC2CCN1C(=O)OCc1ccccc1 (stereo unspecified)	Clone20 osteoblast Shn3 3'UTR firefly luciferase, 24 h	AC50	1.37 µM
CN(Cc1ccc(OC(F)F)cc1)C(=O)c1cccc(S(=O)(=O)N2CCN(Cc3ccccc3)CC2)c1	Clone20 osteoblast Shn3 3'UTR firefly luciferase, 24 h	AC50	2.37 µM
CC(C)n1c(/C=C/[C@H](O)C[C@H](O)CC(=O)O)c(-c2ccc(F)cc2)c2ccccc21	Clone20 osteoblast Shn3 3'UTR firefly luciferase, 24 h	AC50	1.42 µM
CCOC(=O)c1c(NC(=O)COc2cccc3c2CCN(C)C3=O)sc2c1CCC2	Clone20 osteoblast Shn3 3'UTR firefly luciferase, 24 h	AC50	5.44 µM
Nc1cc2c(cc1Br)[nH]c(=O)c1ccccc12	Clone20 osteoblast Shn3 3'UTR firefly luciferase, 24 h	AC50	5.46 µM
COc1cc(C)c(NC(=O)COc2cccc3c2OC(C)(C)C3)cc1OC	Clone20 osteoblast Shn3 3'UTR firefly luciferase, 24 h	AC50	7.06 µM
CCN(CC)S(=O)(=O)c1ccc(-c2ccc(S(=O)(=O)N(CC)CC)cc2)cc1	Clone20 osteoblast Shn3 3'UTR firefly luciferase, 24 h	AC50	3.81 µM
OCc1ccc(O)c2ncccc12	Clone20 osteoblast Shn3 3'UTR firefly luciferase, 24 h	AC50	1.66 µM
CS(=O)(=O)c1ccc(C(=O)OCC(=O)NCc2cccs2)cc1[N+](=O)[O-]	Clone20 osteoblast Shn3 3'UTR firefly luciferase, 24 h	AC50	2.07 µM
O=C1NC2C(=CC(O)C(O)C2O)c2cc3c(c(O)c21)OCO3 (stereo unspecified)	Clone20 osteoblast Shn3 3'UTR firefly luciferase, 24 h	AC50	< 0.26 µM
CN1CCN(S(=O)(=O)c2ccc(Sc3nnnn3-c3ccccc3)c([N+](=O)[O-])c2)CC1	Clone20 osteoblast Shn3 3'UTR firefly luciferase, 24 h	AC50	3.9 µM
O=c1c(Br)c(Br)cnn1-c1ccccc1	Clone20 osteoblast Shn3 3'UTR firefly luciferase, 24 h	AC50	1.82 µM
O=C(Nc1nc(-c2ccccn2)cs1)c1cccc(-n2cnnn2)c1	Clone20 osteoblast Shn3 3'UTR firefly luciferase, 24 h	AC50	2.58 µM
COC(=O)c1cc2c(n1S(=O)(=O)c1ccc(C)cc1)C(=O)C(=O)c1[nH]cc(C(=O)OCc3ccccc3)c1-2	Clone20 osteoblast Shn3 3'UTR firefly luciferase, 24 h	AC50	1.2 µM
CC(C)=CCC/C(C)=C/CNC(=O)C[C@H]1C[C@H](C(=O)N2CCOCC2)[C@@]2(C)c3[nH]c4cc(CCC(=O)N(C)C)ccc4c3CCN2C1=O	Clone20 osteoblast Shn3 3'UTR firefly luciferase, 24 h	AC50	1.11 µM
CC[C@H](C)[C@H]1O[C@]2(CC[C@@H]1C)C[C@@H]1C[C@@H](CC=C(C)[C@@H](O[C@H]3C[C@H](OC)[C@@H](O[C@H]4C[C@H](OC)[C@@H](O)[C@H](C)O4)[C@H](C)O3)[C@@H](C)C=CC=C3CO[C@@H]4[C@H](O)C(C)=C[C@@H](C(=O)O1)[C@]34O)O2	Clone20 osteoblast Shn3 3'UTR firefly luciferase, 24 h	AC50	6.32 µM
CC(=O)O[C@H]1CC[C@@]2(C)C(=CC[C@H]3[C@@H]4CC[C@H](C(C)=O)[C@@]4(C)CC[C@@H]32)C1	Clone20 osteoblast Shn3 3'UTR firefly luciferase, 24 h	AC50	28.5 µM
CC(=O)c1cn(Cc2ccccc2F)c2ccccc12	Clone20 osteoblast Shn3 3'UTR firefly luciferase, 24 h	AC50	2.96 µM
COc1ccc(CCN2C(=O)CSC2=Nc2ccc(C(C)C)cc2)cc1OC	Clone20 osteoblast Shn3 3'UTR firefly luciferase, 24 h	AC50	4.49 µM
O=C(CSc1nnc(Cn2nnc3ccccc32)o1)N(Cc1ccc(Cl)cc1)c1ccccc1	Clone20 osteoblast Shn3 3'UTR firefly luciferase, 24 h	AC50	2.29 µM
C=CCOC(=O)c1[nH]c2c(c1C)C(=O)CC(c1cc(OC)c(OC)c(OC)c1)C2 (stereo unspecified)	Clone20 osteoblast Shn3 3'UTR firefly luciferase, 24 h	AC50	1.83 µM
CCCCCn1c(=O)c(C(=O)Nc2cnccn2)c(O)c2ccccc21	Clone20 osteoblast Shn3 3'UTR firefly luciferase, 24 h	AC50	1.54 µM
Cc1ccc(C)c(NC(=O)CN(C)C(=O)c2cccc(S(=O)(=O)N3CCN(Cc4ccccc4)CC3)c2)c1	Clone20 osteoblast Shn3 3'UTR firefly luciferase, 24 h	AC50	3.5 µM
COC(=O)C1=C(c2ccc(F)cc2OCc2ccccc2)C[C@@H]2CC[C@H]1N2C(=O)NCc1ccc(C(F)(F)F)cc1	Clone20 osteoblast Shn3 3'UTR firefly luciferase, 24 h	AC50	9.14 µM
C=CCn1c(-c2ccc(S(=O)(=O)N3CCOCC3)cc2)csc1=Nc1ccccc1	Clone20 osteoblast Shn3 3'UTR firefly luciferase, 24 h	AC50	1.52 µM

###

System: Clone20 osteoblast Shn3 3'UTR firefly luciferase, 24 h
Method Description: Shn3 3'UTR reporter inhibitors, dose response, cell-based, Clone20 osteoblasts, luminescence, dry powder, set 2 (AID 743417)
Inconclusive results are not listed. Calls of active or inactive are those of the source.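 How the source made its calls: active means compounds lowering the luciferase signal with a fitted half-maximal dose at most twice their top valid dose (cut at about 30 µM in these data); inconclusive means flat fits with moderate signal loss, or poor fits; inactive means the rest.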
Recorded Metric: AC50

>>> print(df.to_string())
                                    compound  recorded_metric     recorded_result
 0       Cc1cc(Cl)n2c(nc3cc(F)c(F)cc32)c1C#N             AC50             3.56 µM
 1        COc1ccc(CCNc2c(C)c(C)nc3ncnn23)cc1             AC50            0.565 µM
 2         CN(C)c1ccc(/C=C/c2nc3ccccc3s2)cc1             AC50            0.494 µM
 3  O=C(Nc1ccccc1)C1=C(c2ccccc2)S(=O)(=O)CCS1(=O)=O             AC50             1.37 µM
 4  O=C(Nc1nc2ccccc2s1)C1CCN(S(=O)(=O)c2cc([N+](=O)[O-])ccc2Cl)CC1             AC50             3.07 µM
 5   Cc1cccc(NC(=O)CSc2nc3ccccc3c(=O)n2C)c1C             AC50             2.98 µM
 6  CC(C)(C)n1nnnc1C(c1ccc(C(F)(F)F)cc1)N(Cc1ccccc1)Cc1ccco1 (configuration not stated)             AC50             4.74 µM
 7  CC(C)C1C(=O)N(Cc2cn(CCC3OCCO3)nn2)CCS(=O)(=O)N1Cc1ccc(-c2ccc(Cl)cc2)cc1 (configuration not stated)             AC50             2.13 µM
 8  Cc1oc(=O)c(NC(=O)c2ccc(Cl)cc2)cc1C(=O)c1ccccc1             AC50             32.1 µM
 9  CC1CN(S(=O)(=O)c2ccc(C(=O)Nc3nc(-c4cc5ccccc5o4)cs3)cc2)CC(C)O1 (configuration not stated)             AC50           < 0.26 µM
10  O=C(CSc1nnc(-c2cccnc2)s1)Nc1ccnc2ccccc12             AC50            0.661 µM
11  O=C(c1ccccc1)N1CCN(c2ncnc3sc4c(c23)CCC4)CC1             AC50             4.14 µM
12       COc1ccc(C(=O)Nc2nc3ccccc3s2)c(OC)c1             AC50            0.523 µM
13    Cc1ccc(S(=O)(=O)Nc2ccc(O)c3ncccc23)cc1             AC50             1.55 µM
14                       O=C1CCc2cccc(O)c2N1             AC50             12.2 µM
15  CC[C@H]1CN2CCc3cc(OC)c(OC)cc3[C@@H]2C[C@@H]1C[C@H]1NCCc2cc(OC)c(OC)cc21             AC50           < 0.26 µM
16  O=C(Nc1ccc(F)cc1)Nc1cc(OCC(F)(F)F)cc(OCC(F)(F)F)c1             AC50             2.46 µM
17  CCN(CC)S(=O)(=O)c1ccc(S(=O)(=O)Nc2c(C)nn(C)c2C)cc1             AC50             2.24 µM
18  COc1cccc(NC(=O)c2nc(S(C)(=O)=O)ncc2Cl)c1             AC50            0.834 µM
19  COc1cc(C(=O)NC2CCCc3c2cnn3-c2ccccc2F)cc(OC)c1OC (configuration not stated)             AC50            0.781 µM
20  Cc1ccc2nc(-c3cccc(SC4CCCCC4)c3)c(NCc3ccccc3)n2c1             AC50             3.53 µM
21  CCOC(=O)CS(=O)(=O)c1nc(-c2ccccc2)cc(C(F)(F)F)n1             AC50             3.42 µM
22        COc1ccccc1CNc1nc(NCC2CC2)nc2ccsc12             AC50             4.16 µM
23        CCCc1ccc(C(=O)NNc2cc(Cl)ccc2Cl)cc1             AC50             2.59 µM
24  Cc1ccc(-c2csc(N3CCC(NS(=O)(=O)c4ccc5c(c4)OCCO5)CC3)n2)cc1             AC50             2.15 µM
25  COc1ccccc1-n1cc([C@@H]2C[C@H]3CN(c4ccccc4)C(=O)[C@]34CCCN24)cn1             AC50             1.46 µM
26  COCCN1Cc2cccc(C(=O)Nc3ccc4c(c3)OCCO4)c2C1=O             AC50             27.1 µM
27         CN(C)c1nc(-c2ccccn2)nnc1-c1ccccc1             AC50              3.3 µM
28  CC(=O)Nc1nc(C)c(-c2csc(Nc3cccc(C(C)=O)c3)n2)s1             AC50             1.67 µM
29  O=C(Nc1ccc([N+](=O)[O-])cc1)Nc1nc(-c2ccc(Cl)s2)cs1             AC50             3.19 µM
30  O=C(Nc1ccc(Br)cc1)c1ccc(F)c(S(=O)(=O)NCc2cccs2)c1             AC50             3.05 µM
31  Cc1cc(/C=C2/SC(=S)N(c3cccc(Cl)c3)C2=O)c(C)n1-c1cccnc1             AC50            0.979 µM
32  CC(=O)c1c(C)[nH]c(C(=O)COc2cc(C)ccc2C(C)C)c1C             AC50             1.25 µM
33  COc1ccc(Oc2cc(NC(=O)c3nn(C)cc3[N+](=O)[O-])cc([N+](=O)[O-])c2)cc1             AC50            0.813 µM
34  CC(=O)N1CCOc2cc(S(=O)(=O)NCc3ccc(F)cc3)c(C)cc21             AC50  > 70 µM (inactive)
35  CCc1ccc(OCC(=O)NC(NC(=S)Nc2ccc(Cl)cc2)C(Cl)(Cl)Cl)cc1 (configuration not stated)             AC50             4.96 µM
36  O=C(c1ccccc1)C(CN1CCCC1)c1ccccc1 (configuration not stated)             AC50             10.7 µM
